The reported numbers originate from the supplement of paper PMC9732359.

experiment: protein stability index of a GFP-peptide fusion (yeast GPS) (PSI 1-4); higher = more stable; sorted into four equal gates, so the index is relative within each strain; settings: pdr5∆
PROPERTY_LABEL: protein stability index
// no unit, no text: just the number

Guide cases for protein stability index, answers given:
INSERT INTO results (residue_codes, property_label, observed_result) VALUES
  ('TLLARAVAHHTDCKFIR [RPT6]', 'protein stability index', 3.03),
  ('SAGFETDLRLSTNGLGM [SNU114]', 'protein stability index', 3.46),
  ('SKRWAQRTLSKSFYSTA [CYT1]', 'protein stability index', 2.32),
  ('QDPKTLVALLSRDLWCF [SSN2]', 'protein stability index', 1.34);

Look up protein stability index for this sequence: EVNREEAIGFIRGSNKF [SMC3]
2.77

Do the same for MQTALRRLPEDESYARA [QCR7] please
2.5

Do the same for KVLEMKNLKDTASVEKA [YIL149C/MLP2] please
3.26

Do the same for DEAEGRFEVINNETEQL [SMC1] please
2.56

Do the same for LGLLLPIAASTDLPIET [RPN1] please
2

Do the same for LDLAGPLLAQLFKTLFK [RPB2] please
1.25

Do the same for EEIFFKSVRILKNKAEY [RPC40] please
3.2

Do the same for KRINFEKIKDIHNTKLP [POP1] please
3.06

Do the same for LYENIASSPIILEEGSS [RPN10] please
2.37

Do the same for GGHSLEEISFSLSEGCD [PRP28] please
2.42

Do the same for EQWITIESQMRDLILTE [PRP8] please
3.1

Do the same for GNENFEDFDVEHFSDEE [RPO26] please
3.1

Do the same for SVINVSAQRDRRYRKRV [RPS17A] please
2.06

====

Measured protein stability index, listed per entry.
assay: protein stability index of a GFP-peptide fusion (yeast GPS) (PSI 1-4); higher = more stable; sorted into four equal gates, so the index is relative within each strain; details: doa10∆

Guide cases for protein stability index, answers given:
INSERT INTO results (residue_codes, observed_result) VALUES
  ('TEDIRIRAQNFKSALAN [RRP6]', 2.35),
  ('DPLAKVNVLLQSYFSQL [BRR2]', 1.28),
  ('MTPVIEKIAAGYMQKPV [PRP28]', 2.16),
  ('NKLGNDPSLNLKLLAKS [BRR2]', 2.64),
  ('TLLNFVSNNVLRRLEIL [ECM29]', 1.63),
  ('NTNNINNSSSGMNNASA [YGL172W/NUP49]', 3.33),
  ('TAAFTAMICEAKGLIEN [YJR042W/NUP85]', 2.62),
  ('KRTRLESLKNLNESRSQ [SMC3]', 2.53);

Look up protein stability index for this sequence: NGTLIGCVSYSPAALKQ [YMR153W/NUP53]
1.85

Do the same for YLERIELSFYILYSFKL [YML103C/NUP188] please
1.49

Do the same for TKSHNTVQSWLCDLFVN [NUT1] please
1.55

Do the same for LNVTPSKRPQLGEIPNP [SIR4] please
2.54

Do the same for RDALRNIKNTNEEATPI [RRP6] please
2.76

Do the same for IKPKPLWSGKQILSVAI [RPO21] please
1.62

Do the same for TCRKHTQHKVTQYKAGK [RPL42A] please
3.09

Do the same for DSVFSFGPKKENRKKDE [YLR335W/NUP2] please
3.01
